Target: T1, Human PD-L1 expressed on cells (human, UniProt Q9NZQ7 19-290)
T1 construct: One entry used for transfected and natively expressing cells; also called CHO-S hPD-L1; CHO human PD-L1
T1 sequence (Q9NZQ7 19-290 limits assumed): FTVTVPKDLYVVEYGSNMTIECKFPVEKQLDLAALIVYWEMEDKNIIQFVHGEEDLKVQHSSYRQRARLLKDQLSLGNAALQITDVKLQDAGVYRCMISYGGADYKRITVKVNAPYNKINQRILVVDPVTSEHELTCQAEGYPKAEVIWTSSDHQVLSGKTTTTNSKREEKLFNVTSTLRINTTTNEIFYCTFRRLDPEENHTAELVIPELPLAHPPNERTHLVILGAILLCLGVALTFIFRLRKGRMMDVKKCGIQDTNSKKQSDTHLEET
Test: flow cytometry on CHO hPD-L1 cells, competitor biotin-CD80-Fc, n = 1
measurement-label: IC50 (nM)
Numbers only, in nM.

Past entries and their recorded results:
| binder | IC50 (nM) |
| --- | --- |
| 413G05 (antibody, human IgG1, kappa, V domains shown) VH: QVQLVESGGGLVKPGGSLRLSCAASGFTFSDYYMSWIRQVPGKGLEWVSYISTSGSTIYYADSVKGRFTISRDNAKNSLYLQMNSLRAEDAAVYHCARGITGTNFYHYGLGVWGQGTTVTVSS VL: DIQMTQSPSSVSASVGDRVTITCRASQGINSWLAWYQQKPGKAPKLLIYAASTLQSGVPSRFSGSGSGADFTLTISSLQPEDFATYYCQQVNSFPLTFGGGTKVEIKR | 1.09 |
| 414B06 (antibody, V domains shown, also called 414606) VH: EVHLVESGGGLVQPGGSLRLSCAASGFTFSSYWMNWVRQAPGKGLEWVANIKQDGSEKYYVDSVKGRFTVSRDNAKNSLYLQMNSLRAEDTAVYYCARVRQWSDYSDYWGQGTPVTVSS VL: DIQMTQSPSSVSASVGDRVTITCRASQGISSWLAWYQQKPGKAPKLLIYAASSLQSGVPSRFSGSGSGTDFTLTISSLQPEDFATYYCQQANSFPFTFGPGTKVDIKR | 1.26 |
| 416E01 (human IgG1) (antibody, V domains shown) VH: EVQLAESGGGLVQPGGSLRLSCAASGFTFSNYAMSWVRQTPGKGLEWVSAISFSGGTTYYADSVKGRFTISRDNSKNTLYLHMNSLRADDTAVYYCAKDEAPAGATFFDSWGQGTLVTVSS VL: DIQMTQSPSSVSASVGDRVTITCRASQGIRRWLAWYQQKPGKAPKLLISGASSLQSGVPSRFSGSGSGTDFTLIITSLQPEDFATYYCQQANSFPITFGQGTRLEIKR | 1.04 |

Consider now this further binder.
Given the binder 84G09 (human IgG1) (antibody, V domains shown, also called clone 84609; lead antibody) VH: EVQLVESGGGLVQPGRSLRLSCAASGFTFDDYAMHWVRQTPGKGLEWVSGISWKSNIIGYADSVKGRFTISRDNAKNSLYLQMNSLRAEDTALYYCARDITGSGSYGWFDPWGQGTLVTVSS VL: DIQMTQSPSSLSASVGDRVTITCRASQSISSYLNWYQQKPGKAPKPLIYVASSLQSGVPSSFSGSGSGTDFTLTISSLQPEDFATYYCQQSYSNPITFGQGTRLEIKR , what is its reported IC50?
1.11

Reference source for all entries: patent US20210380699A1
